B1: library; numbered along this chain (parent)
chain: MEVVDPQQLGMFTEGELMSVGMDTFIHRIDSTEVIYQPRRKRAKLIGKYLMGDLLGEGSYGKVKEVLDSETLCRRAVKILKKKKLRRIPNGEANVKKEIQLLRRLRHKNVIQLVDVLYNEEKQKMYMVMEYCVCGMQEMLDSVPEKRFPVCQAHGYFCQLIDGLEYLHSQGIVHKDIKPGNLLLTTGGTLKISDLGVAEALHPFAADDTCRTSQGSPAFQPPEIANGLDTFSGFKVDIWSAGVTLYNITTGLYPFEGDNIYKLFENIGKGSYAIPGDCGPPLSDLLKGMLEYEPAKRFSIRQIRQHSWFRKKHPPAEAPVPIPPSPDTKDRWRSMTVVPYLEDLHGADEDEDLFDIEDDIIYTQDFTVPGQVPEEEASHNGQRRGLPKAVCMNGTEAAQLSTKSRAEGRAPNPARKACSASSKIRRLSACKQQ

- Variants of: B1
- testDescription: STK11 functional score (HeLa growth suppression), rescaled enrichment; synonymous median = 1, nonsense median = 0 (normalised score)
- condition: with HeLa; variant type: missense
endpointName: STK11 functional score
Give a plain numeric answer without units written out.

Previously resolved entries follow.
• L101R = 1.25
• F234L = 0.75
• D208W = 0.524
• R211Y = 1.53
• K62C = 1.4

Q. Look at this variant and give its reported STK11 functional score. A206F
A. 0.495

Q. Likewise for I267F ?
A. 0.659
